molecular target: Tyrosine-protein kinase SYK (Homo sapiens, UniProt P43405); experiment: Inhibition of recombinant Syk
ENDPOINT NAME: IC50 (µM)

# COMPOUND, ASSAY VALUE
data = [
    ("Cc1cc(Nc2nn(C(C)C)c(=O)c3cc(N4CCN(C)CC4)ccc23)[nH]n1", 5.36),
]

P. COc1cc(Nc2nc(NC3CCCC[C@H]3N)n3ncnc3c2C(N)=O)cc(OC)c1 (stereo not given in full)
Q. Cc1cc(Nc2nccc(-c3nc(C)c(CCO)s3)n2)cc(C(F)(F)F)c1
R. O=[N+]([O-])c1ccccc1COc1ccc(Nc2nccc(-c3nccs3)n2)cc1
S. COc1cc(Nc2nc(NC3CCCCC[C@H]3N)n3ccnc3c2C(N)=O)cc(OC)c1 (stereo not given in full)
Q. Place the items in sequence of falling IC50. Use the labels to give the ranking in the order requested.
A. R, Q, S, P
